# ASSAY_PROTOCOL: NF-kB reporter inhibitors in human cells, confirmation, counter-screen for STAT3 inhibitor project, cell-based, HEK293T, luciferase, TNF-alpha stimulus (AID 1308);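 note: 0% = TNF-alpha with DMSO and 100% = TNF-alpha with MG high control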
# ASSAY_CONTEXT: TNF-alpha induced, at 5.7 µM
The list shows a part of the results. Active and inactive are the calls of the source.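 Rule for the calls: active = inhibition above the mean of solvent-only control wells plus 3 SD, cutoff set per campaign (cut at about 13% in these data); inactive = the rest.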
Labels: active, inactive

INSERT INTO measurements (compound, category) VALUES
  ('Cc1ccc(N/C=C/C(=O)c2ccccc2)cc1C', 'active'),
  ('COc1ccc(NS(=O)(=O)c2ccc(NC(C)=O)cc2)cc1OC', 'inactive'),
  ('CCc1ccc2oc(-c3ccc(N)cc3)nc2c1', 'active'),
  ('Cc1ccc(-c2cc(C(=O)N/N=C/C=C/c3ccco3)c3ccccc3n2)cc1C', 'inactive'),
  ('O=C(Nc1nc2ccccc2s1)c1ccc2c(c1)OCO2', 'inactive'),
  ('CCCCCc1ccc(-c2ccc(C(=O)O)cc2)nc1', 'inactive'),
  ('CCCc1ccc(-c2csc(NC(=O)Cc3cccs3)n2)cc1', 'inactive'),
  ('O=C(Nc1ccc(CSc2ccccc2)cc1)c1ccc(CN2CCOCC2)cc1', 'active'),
  ('O=C(Nc1cccnc1)c1noc2c1CCCCC2', 'inactive'),
  ('O=C1NC(Nc2nc3ccccc3s2)(C(F)(F)F)C(=O)N1C1CCCCC1 (stereo unspecified)', 'active'),
  ('CN(Cc1cccnc1)C(=O)c1cc(COc2ccc3ncccc3c2)on1', 'active'),
  ('Cc1ccc2nc(-c3ccc(NC(=O)CN(C)S(=O)(=O)c4ccccc4)cc3)sc2c1', 'inactive'),
  ('COc1cccc(/C=C/c2ccc3ccccc3n2)c1OC(C)=O', 'active'),
  ('CCOc1ccc(-c2nnc(-c3ccco3)o2)cc1', 'active'),
  ('CCN(CC)c1ccc(/C=N/Nc2nc(C)cc(=O)[nH]2)cc1', 'inactive'),
  ('O=c1c2c(nc3cc(-c4cccc(Cl)c4)[nH]n13)CCCC2', 'inactive'),
  ('OCCn1c(-c2ccccc2)csc1=Nc1ccccc1', 'inactive'),
  ('CCCCOc1ccc(-c2nnc(-c3ccco3)o2)cc1', 'inactive'),
  ('c1coc(CNc2ncnc3ccccc23)c1', 'active'),
  ('CN(C)S(=O)(=O)c1ccc(NC(=O)COC(=O)c2n[nH]c3ccccc23)cc1', 'inactive'),
  ('Cc1ccc2cc3cc(C(=O)N4CCCCCC4)oc3nc2c1', 'inactive'),
  ('CCCOc1ccc(C(=O)NCCc2ccccc2)cc1', 'inactive'),
  ('Cc1ccc(Nc2ccccc2N)cc1', 'active'),
  ('O=c1oc(/C=C/c2ccccc2)nc2ccccc12', 'inactive'),
  ('O=C(Nc1ccc(Cl)cn1)c1ccc2c(c1)OCCO2', 'inactive'),
  ('Oc1c(Cl)cc(Cl)c(Cl)c1Cc1c(O)c(Cl)cc(Cl)c1Cl', 'active'),
  ('CCCOC(=O)c1[nH]c2c(c1C)C(=O)CC(c1cc(OC)c(OC)c(OC)c1)C2 (stereo unspecified)', 'active'),
  ('O=C(Nc1nc(-c2ccc3c(c2)OCO3)cs1)c1ccncc1', 'inactive'),
  ('O=C(Nc1ccn(Cc2ccccc2)n1)c1n[nH]c([N+](=O)[O-])c1Cl', 'inactive'),
  ('COc1ccccc1Oc1ccc(S(=O)(=O)Nc2cccnc2)cc1', 'inactive'),
  ('CCOc1cccc(/C=C/c2ccc3ccccc3n2)c1OC(C)=O', 'inactive'),
  ('c1ccc2[nH]c(-c3nc4ccccc4[nH]3)nc2c1', 'inactive'),
  ('Cc1csc(SCC(=O)Nc2sccc2C#N)n1', 'inactive'),
  ('Cc1nc2ccccc2cc1OCc1ccc(F)cc1', 'inactive'),
  ('Cc1nc(CNS(=O)(=O)c2ccc(Oc3ccccc3)cc2)cs1', 'inactive'),
  ('Cc1nc(-c2ccc(NC(=O)c3cccs3)cc2)cs1', 'inactive');

====

# Test system: transactivating tegument protein VP16 (Human herpesvirus 1), Gal4-VP16 luciferase reporter
# ASSAY_PROTOCOL: VP16 transactivation inhibitors, counter-screen for SRC3 inhibitor project, cell-based, luminescence, high throughput (AID 588794)
# ASSAY_CONTEXT: mammalian cells, VP16-driven luciferase reporter luminescence; at 3.6 µM
The source made the active and inactive calls. Cut-off read from the data, not from the text of the source: active = inhibition above about 30%; inactive = the rest.
Labels: active, inactive

INSERT INTO results (compound, category) VALUES
  ('CC1CCc2nc(NC(=O)C3COc4ccccc4O3)sc2C1 (stereo not drawn)', 'inactive'),
  ('COc1ccc(CCNC(=O)COC(=O)Cc2cccc3ccccc23)cc1', 'inactive'),
  ('CCOC(=O)c1ccc(NC(=O)c2ccc(C)c(S(=O)(=O)N3CCOCC3)c2)cc1', 'active'),
  ('Cc1ccc(NC(=O)c2cc3ccccc3oc2=O)cc1S(=O)(=O)N(C)C', 'active'),
  ('CCCC(=O)N1CCN(c2ccc(NC(=O)c3cc4ccccc4o3)cc2Cl)CC1', 'inactive'),
  ('COCC(C)n1c(C)cc(C(=O)COC(=O)c2cccn2C)c1C (stereo not drawn)', 'inactive'),
  ('O=C1N=c2ccccc2=C1c1sc(=O)[nH]c1O', 'inactive'),
  ('Clc1ccc(OCCN2CCN(c3ncnc4sccc34)CC2)cc1', 'active'),
  ('CCCn1nc(C(=O)NCC2COc3ccccc3O2)c2ccccc2c1=O (stereo not drawn)', 'inactive'),
  ('O=C(NCc1ccccc1)c1c(Cl)nc(Cl)c(Cl)c1Cl', 'inactive'),
  ('Cc1c(P(=S)(c2ccccc2)c2ccccc2)[n+]2ccccc2n1C/C=C/c1ccccc1', 'active'),
  ('C(=N\Nc1ccc2ccccc2n1)/c1ccc2c(c1)OCCO2', 'inactive'),
  ('Nc1nc(=O)n(C2OC(CO)C(O)C2O)cc1F (stereo not drawn)', 'active'),
  ('COc1ccc(C(=O)Nc2nc3ccccc3s2)c(OC)c1', 'active'),
  ('CC(=O)Nc1ccc(S(=O)(=O)c2ccnc3cc(Cl)ccc23)cc1', 'active'),
  ('CN(C)CC(C(=O)c1ccccc1)c1ccccc1 (stereo not drawn)', 'active'),
  ('Cc1cccc(-n2c(N)c(-c3nc4ccccc4n3C)c3nc4ccccc4nc32)c1', 'inactive'),
  ('CN(C)c1cc[n+](CC(=O)Nc2ccc(Oc3ccccc3)cc2)cc1', 'inactive'),
  ('CCCCNc1nc2c(c(=O)n(C)c(=O)n2C)n1Cc1cccc(OC)c1', 'inactive'),
  ('Cc1c(C(C)NC(=O)c2cc(COc3cccc4cnccc34)on2)cnn1C (stereo not drawn)', 'active'),
  ('CC(C)c1ccc(/C=N/Nc2ccc(C(=O)O)cc2)cc1', 'inactive'),
  ('Cc1ccc(C(=O)C[n+]2cc(-c3ccc(C)cc3)n3c2CCCCC3)cc1', 'active'),
  ('O=C(NNc1ccc(O)cc1)c1ccc(Br)cc1', 'active'),
  ('COc1ccc(C(C)=O)cc1CSc1nnc(Nc2ccccc2)s1', 'inactive'),
  ('O=C(C1=C(O)C(=O)N(CCN2CCOCC2)C1c1cccc([N+](=O)[O-])c1)c1cccs1 (stereo not drawn)', 'inactive'),
  ('COc1ccc(-n2c(-c3ccc(Br)cc3)c[n+]3c2CCCCC3)cc1', 'inactive'),
  ('Cc1ccc(S(=O)(=O)NCc2ccc(C(=O)N3CCN(c4ccc([N+](=O)[O-])cc4)CC3)cc2)cc1', 'active'),
  ('CCCC(=O)NC(c1ccc2c(c1)OCO2)c1cc(Cl)c2cccnc2c1O (stereo not drawn)', 'inactive'),
  ('O=C(N/N=C/c1ccc(O)cc1O)/C(=C/c1ccccc1)CCO', 'inactive'),
  ('COC1C=CC=C(C)C(=O)NC2=CC(=O)C(N)=C(CC(C)CC(OC)C(O)C(C)C=C(C)C1OC(N)=O)C2=O (stereo not drawn)', 'active'),
  ('CC(C)(C)C(=O)NC(=S)NNC(=O)c1sc2ccccc2c1Cl', 'inactive'),
  ('Cc1cc(/C=C2\SC(=S)N(C)C2=O)c(C)n1-c1ccc(O)cc1', 'active'),
  ('Cc1cccc(NC(=O)c2cc(-c3ccccn3)nc3ccccc23)c1C', 'inactive'),
  ('CCN(CC)CCCNc1nc2cc(OC)c(OC)cc2c2nc(-c3cccnc3)nn12', 'active'),
  ('O=C(CCl)N(c1ccccc1)C1CCS(=O)(=O)C1 (stereo not drawn)', 'inactive'),
  ('Cc1ccc(OCC(=O)c2cc(C)n(-c3ccccc3)c2C)c([N+](=O)[O-])n1', 'inactive'),
  ('COc1ccccc1NS(=O)(=O)c1cc(NC(=O)c2[nH]c(C)c(C(C)=O)c2C)ccc1N1CCOCC1', 'inactive'),
  ('COc1ccc(COC(=O)C2=C(C)NC(=O)NC2c2ccc(F)cc2)cc1 (stereo not drawn)', 'inactive');

====

# TARGET: Nuclear receptor subfamily 5 group A member 2 (Homo sapiens)
# ASSAY_PROTOCOL: LRH-1 (NR5A2) inverse agonists, retest, confirmation, cell-based, luminescence (AID 651613);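 note: HEK293T cells co-transfected with LRH-1 and StAR promoter luciferase reporter; 0% = vehicle wells and 100% = parental cells lacking receptor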
# ASSAY_CONTEXT: cell-based LRH-1 luciferase reporter, inverse agonism; at 3.6 µM; active compounds read high
Calls of active or inactive are those of the source. Rule as the data show it: active = inhibition above about 42%; inactive = the rest.
In this section, each of the compounds is paired with its reported inhibition.
PROPERTY_LABEL: inhibition

INSERT INTO results (compound, measured_value) VALUES
  ('CC(O)CC(=O)OC[C@]12CC[C@H]3[C@@](C)(CC[C@H]4C(C)(C)CCC[C@]34C)[C@@H]1CC(C1=CC(=O)OC1O)O2 (some centres undefined)', '76.6% (active)'),
  ('O=C(CCl)NCc1cc(-c2ccc(Cl)cc2)no1', '70.7% (active)'),
  ('COc1ccc(NC(=O)CSc2nnc(Cc3ccccc3)c(=O)n2N)c(OC)c1', '51% (active)'),
  ('CC(=O)Oc1ccc2oc(=O)c3c(c2c1)CCCN3C(=O)CN1CCN(c2ncccn2)CC1', '58% (active)'),
  ('CCCOC(=O)c1[nH]c2c(c1C)C(=O)CC(c1cc(OC)c(OC)c(OC)c1)C2 (centres undefined)', '54.7% (active)'),
  ('CCN(CC)C1=CC(=[N+]2CCCC2)CC(C)(C)C1', '61.9% (active)'),
  ('CC(=O)NC(Cc1c[nH]c2ccccc12)C(=O)OCC(=O)Nc1ccc2c(c1)OCO2 (centres undefined)', '56.8% (active)'),
  ('Cc1ccc(/C=C/C(=O)c2c(C)cc(C)[nH]c2=O)cc1', '42.8% (active)'),
  ('CCN(CC)c1nc(C)c(C(C)=O)cc1C#N', '32.7% (inactive)');

Each recorded value in this set is attributed to PubChem BioAssay.
